molecular target: T1, human programmed cell death protein 1 (hPD-1) C93S (aa 24-167) (Homo sapiens, UniProt Q15116, C93S); assay: SPR; Carterra LSA; Fab from the ammonium sulfate precipitate of the culture supernatant immobilised on a NiHC200M chip; hPD-1 (1-1024 nM) or mPD-1-Fc (4-1024 nM) as analyte, fourfold dilution series, no regeneration; HBS-EP pH 7.4, 25 °C; medians over the spots of a construct, KD = koff/kon; details: one partner purified
T1 construct: made as a fusion with a TEV site and human Fc; the Fc was cut off with TEV protease; source: Expi293F, purified (Protein A, TEV cleavage of Fc, SEC; monomer fractions); not shown: Fc (human), C-terminal, cleaved
T1 sequence (Q15116 24-167 C93S): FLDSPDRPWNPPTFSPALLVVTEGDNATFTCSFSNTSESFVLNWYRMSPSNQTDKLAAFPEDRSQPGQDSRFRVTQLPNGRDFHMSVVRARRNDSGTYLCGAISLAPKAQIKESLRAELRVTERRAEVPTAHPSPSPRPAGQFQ
measured property: Kd (nM)
Supply the numeric figure in nM, leaving out any unit text.

binder	numeric readout
toripalimab Fab H.I51A (Fab, V domains shown, heavy chain of Sm3 with this change; numbers count from the chain's first residue; as the light chain of Sm3; source: Brevibacillus, culture supernatant (ammonium sulfate precipitate); not shown: 6xHis, C-terminal, kept; 6xHN, C-terminal, kept) VH: QGQLVQSGAEVKKPGASVKVSCKASGYTFTDYEMHWVRQAPIHGLEWIGVAESETGGTAYNQKFKGRVTITADKSTSTAYMELSSLRSEDTAVYYCAREGITTVATTYYWYFDVWGQGTTVTVSS VL: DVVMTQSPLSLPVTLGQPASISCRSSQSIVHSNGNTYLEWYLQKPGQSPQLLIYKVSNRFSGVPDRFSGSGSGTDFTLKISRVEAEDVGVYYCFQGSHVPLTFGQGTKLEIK	1.06
toripalimab Fab H.G100Y (Fab, V domains shown, heavy chain of Sm3 with this change; numbers count from the chain's first residue; as the light chain of Sm3; source: Brevibacillus, culture supernatant (ammonium sulfate precipitate); not shown: 6xHis, C-terminal, kept; 6xHN, C-terminal, kept) VH: QGQLVQSGAEVKKPGASVKVSCKASGYTFTDYEMHWVRQAPIHGLEWIGVIESETGGTAYNQKFKGRVTITADKSTSTAYMELSSLRSEDTAVYYCAREYITTVATTYYWYFDVWGQGTTVTVSS VL: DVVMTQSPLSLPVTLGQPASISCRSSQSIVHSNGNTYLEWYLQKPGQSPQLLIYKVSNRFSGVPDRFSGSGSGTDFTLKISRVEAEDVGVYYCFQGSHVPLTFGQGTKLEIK	107

Fill in the blank: the reported Kd of toripalimab Fab L.S26A (Fab, V domains shown, as the heavy chain of Sm3; light chain of Sm3 with this change; numbers count from the chain's first residue; source: Brevibacillus, culture supernatant (ammonium sulfate precipitate); not shown: 6xHis, C-terminal, kept; 6xHN, C-terminal, kept) VH: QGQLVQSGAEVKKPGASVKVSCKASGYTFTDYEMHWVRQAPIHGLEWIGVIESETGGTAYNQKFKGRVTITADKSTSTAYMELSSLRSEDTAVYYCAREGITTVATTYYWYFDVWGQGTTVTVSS VL: DVVMTQSPLSLPVTLGQPASISCRSAQSIVHSNGNTYLEWYLQKPGQSPQLLIYKVSNRFSGVPDRFSGSGSGTDFTLKISRVEAEDVGVYYCFQGSHVPLTFGQGTKLEIK is ____.
0.802

Numbers sourced from paper PMC10663500.
